biological target: Hypoxia inducible factors; HIF-1-alpha, HIF-2-alpha (Homo sapiens, UniProt Q16665+Q99814); test: Inhibition of hypoxia-induced HIF1 activation in human LN229 cells expressing HRE-AP reporter gene at 2.5 uM preincubated for 1 hr under normoxia condition followed by 24 hrs incubation under hypoxia condition by HRE-luciferase reporter assay relative to control; values are per cent of control
experimental_readout: residual activity (%)

See these solved cases before continuing.
• CC1(C)C=Cc2cc(CN(Cc3ccccc3)S(=O)(=O)c3ccc([N+](=O)[O-])cc3)ccc2O1 = 47
• COc1ccc(S(=O)(=O)N(Cc2ccc3c(c2)C=CC(C)(C)O3)C2CCCCC2)cc1OC = 44

[I] CC1(C)C=Cc2cc(CN(c3ccccc3)S(=O)(=O)c3ccc(Br)cc3OC(F)(F)F)ccc2O1
[II] CC1(C)C=Cc2cc(CN(c3ccccc3)S(=O)(=O)c3ccc([N+](=O)[O-])cc3)ccc2O1
Which value of residual activity is greater, the one for I or the one for II ? Please indicate the selected item by its label.
II
(II: 78%, I: 53%)

----------
molecular target: Hypoxia inducible factors; HIF-1-alpha, HIF-2-alpha (Homo sapiens, UniProt Q16665+Q99814); experiment: Inhibition of hypoxia-induced HIF1 activation in human LN229 cells expressing HRE-AP reporter gene preincubated for 1 hr under normoxia condition followed by 24 hrs incubation under hypoxia condition by HRE-luciferase reporter assay; type: cell-based
experimental_readout: IC50 (nM)

See these solved cases before continuing.
• CC1(C)C=Cc2cc(CN(Cc3ccccc3)S(=O)(=O)c3ccc(Br)cc3OC(F)(F)F)ccc2O1 = 508
• CC(C)CN(Cc1ccc2c(c1)C=CC(C)(C)O2)S(=O)(=O)c1ccc([N+](=O)[O-])cc1 = 532
• COc1ccc(S(=O)(=O)N(Cc2ccc3c(c2)C=CC(C)(C)O3)CC(C)C)cc1OC = 672

[P] COc1ccc(S(=O)(=O)N(Cc2ccc3c(c2)C=CC(C)(C)O3)C2CCCCC2)c(OC)c1
[Q] CC(C)CN(Cc1ccc2c(c1)C=CC(C)(C)O2)S(=O)(=O)c1cccc2ccccc12
// returns P or Q , whichever has the lower IC50 Please indicate the selected item by its label.
Q
(Q: 656 nM, P: 1270 nM)

----------
biological target: Hypoxia inducible factors; HIF-1-alpha, HIF-2-alpha (Homo sapiens, UniProt Q16665+Q99814); experiment: Inhibition of hypoxia-induced HIF1 activation in human LN229 cells expressing HRE-AP reporter gene assessed as HRE remaining activity at 10 uM preincubated for 1 hr under normoxia condition followed by 24 hrs incubation under hypoxia condition by alkaline phosphatase reporter assay relative to control; type: cell-based
experimental_readout: Activity (%)

See these solved cases before continuing.
• COc1ccc(S(=O)(=O)N(Cc2ccc3c(c2OC)OC(C)(C)C=C3)c2ccccc2)cc1OC = 48.6
• CC(c1ccc2c(c1)C=CC(C)(C)O2)n1cnc2ncccc21 (stereo not given) = 76.9
• CCN(CC)C(=O)OCn1cc(C(O)c2ccc3c(c2)C=CC(C)(C)O3)nn1 (stereo not given) = 97.7

[1] COc1c(CN(Cc2ccccc2)C(=O)c2cccs2)ccc2c1OC(C)(C)C=C2
[2] CC(=O)N(Cc1ccc2c(c1)C=CC(C)(C)O2)C(C)C
Which value of Activity is greater, the one for 1 or the one for 2 ? Please indicate the selected item by its label.
2
